Reference for the values: patent US20250388543A1

- assaySystem: UniProtKB Q9Y5Y9
- assayProcedure: E-VIPR Assay Detecting and Measuring NaV Inhibition Properties
- conditionLabel: HEK cells expressing a truncated form of human NaV 1.8 with full channel activity; electrical stimulation, membrane-potential FRET dyes; 30 minutes compound incubation; read-out: measured IC50 value in the E-VIPR Assay
pIC50: −log10 of the molar value.
measuredQuantity: pIC50

Cc1c(Oc2nc3ccccc3cc2-c2cc(=O)cc[nH]2)ccc(F)c1F [Compound 115] ... 5.70 to 6.30
CCOC(=O)c1c(-c2cc3ccccc3nc2N2CCC(C)(C)C2)[nH]c(C)c(OC)c1=O [Compound 238] ... 5.70 to 6.30
Cc1cc(=O)cc(-c2ccccc2OCC2CC2)[nH]1 [Compound 146] ... ≤ 5.30

Fill in: pIC50 of CCOC(=O)c1c(-c2cc3ccccc3nc2N2CCCOCC2)[nH]c(C)c(OC)c1=O [Compound 227] is ___ 5.30 to 5.70

Now the molecule CCOC(=O)c1c(-c2cc3ccccc3nc2N2CCCC(F)(F)C2)[nH]c(C)c(OC)c1=O [Compound 226] 5.30 to 5.70

Now the molecule Cc1[nH]c(-c2cc(C(F)(F)F)ncc2C2CCC(C(F)(F)F)CC2)cc(=O)c1C (stereo not shown) [Compound 142] 5.70 to 6.30

Now the molecule Cc1[nH]c(-c2ccc(C(C)(C)C)cc2OCC2CC2(F)F)cc(=O)c1C (stereo not shown) [Compound 135] 5.70 to 6.30

Now the molecule Cc1cc(C(C)(C)C)cc(Oc2ccc(F)cc2O)c1-c1cc(=O)cc[nH]1 [Compound 160] ≤ 5.30

Now the molecule CCOC(=O)c1c(-c2cc3ccccc3nc2N2C[C@@H]3CCO[C@@H]3C2)[nH]c(C)c(OC)c1=O [Compound 228] ≤ 5.30

Now the molecule CCOC(=O)c1c(-c2cc3ccccc3nc2N2CCC[C@@H](OC)C2)[nH]c(C)c(OC)c1=O [Compound 224] 5.30 to 5.70

* * *

Below: a set of entries, each annotated with reported IC50.
- assaySystem: UniProt:Q9Y5Y9
- assayProcedure: E-VIPR Assay Detecting and Measuring NaV Inhibition Properties
- conditionLabel: HEK cells expressing a truncated form of human NaV 1.8 with full channel activity; electrical stimulation, membrane-potential FRET dyes; 30 minutes compound incubation; read-out: measured IC50 value in the E-VIPR Assay

Cc1c(Oc2ncc(C(F)(F)F)c(C)c2-c2cc(=O)c(C(N)=O)c[nH]2)ccc(F)c1F [Compound 310] ... 500 to 2000 nM

Fill in: IC50 of CCOC(=O)c1c(-c2cc3ccccc3nc2N2CCOCC2)[nH]c(C)c(OC)c1=O [Compound 249] is ___ ≥ 5000 nM

Now the compound CCOC(=O)c1c(-c2cc3ccccc3nc2N2CCC(OC)CC2)[nH]c(C)c(OC)c1=O [Compound 229] 2000 to 5000 nM

Now the compound COC(=O)c1c(-c2cc(C(F)(F)F)ncc2N2CCCC(F)(F)CC2)[nH]c(C)c(C)c1=O [Compound 297] 2000 to 5000 nM

Now the compound COc1cc(F)ccc1Oc1cc(C(C)(C)C)cc(C)c1-c1cc(=O)cc(C(O)CO)[nH]1 (stereo not shown) [Compound 274] ≥ 5000 nM

Now the compound CCOC(=O)c1c(-c2cc3ccccc3nc2N2CC[C@H](OC)C2)[nH]c(C)c(OC)c1=O [Compound 244] 2000 to 5000 nM

Now the compound CCOC(=O)c1c(C)[nH]c(-c2c(Oc3ccc(F)c(F)c3C)ncc(C(F)(F)F)c2C)c(C)c1=O [Compound 43] 500 to 2000 nM

Now the compound Cc1cc(=O)cc(-c2cc(C(F)(F)F)ncc2C2CCC(C(F)(F)F)CC2)[nH]1 (stereo not shown) [Compound 322] 2000 to 5000 nM

* * *

- assaySystem: human NaV 1.8 (Homo sapiens)
- assayProcedure: E-VIPR Assay Detecting and Measuring NaV Inhibition Properties
- conditionLabel: HEK cells expressing a truncated form of human NaV 1.8 with full channel activity; electrical stimulation, membrane-potential FRET dyes; 30 minutes compound incubation; read-out: measured IC50 value in the E-VIPR Assay
pIC50: −log10 of the molar value.
Below: a set of entries, each annotated with reported pIC50.

Worked cases, answers included:
Cc1cc(=O)cc(-c2c(C(F)(F)F)ccnc2N2CCC(F)(F)CC2)[nH]1 [Compound 319] ... ≤ 5.30
Cc1cc(=O)cc(-c2cc3ccccc3nc2OCc2ccccc2)[nH]1 [Compound 105] ... ≤ 5.30
Cc1cc(=O)cc(-c2ccc(C(F)(F)F)cc2C2(O)CCC(F)(F)CC2)[nH]1 [Compound 323] ... ≤ 5.30
CCOC(=O)c1c(-c2cc(C(F)(F)F)ncc2N2CCCC(F)(F)CC2)[nH]c(C)c(C)c1=O [Compound 34] ... 5.30 to 5.70
CO[C@@H]1CN(c2nc3ccccc3cc2-c2cc(=O)cc(C)[nH]2)C[C@@H]1C [Compound 253] ... 5.70 to 6.30
COc1c(Oc2cnc(C(F)(F)F)cc2-c2[nH]c(C)c(C)c(=O)c2C(=O)O)ccc(F)c1F [Compound 280] ... 5.70 to 6.30

Fill in: pIC50 of Cc1cc(=O)cc(-c2cc(C(F)(F)F)cnc2N2CCC(F)(F)CC2)[nH]1 [Compound 157] is ___ ≤ 5.30

Now the molecule Cc1cc(=O)cc(-c2cc(C(F)(F)F)cnc2N2CCCC(F)(F)CC2)[nH]1 [Compound 156] 5.70 to 6.30

* * *

- assaySystem: human NaV 1.8 (Homo sapiens)
- assayProcedure: E-VIPR Assay Detecting and Measuring NaV Inhibition Properties
- conditionLabel: HEK cells expressing a truncated form of human NaV 1.8 with full channel activity; electrical stimulation, membrane-potential FRET dyes; 30 minutes compound incubation; read-out: measured IC50 value in the E-VIPR Assay
Below: a set of entries, each annotated with reported IC50.

Worked cases, answers included:
CCOC(=O)c1c(-c2cc3ccccc3nc2N2CCC[C@H](OC)C2)[nH]c(C)c(OC)c1=O ... 2000 to 5000 nM
Cc1cc(=O)cc(-c2ccc(C(F)(F)F)cc2C2=CCC(F)(F)CC2)[nH]1 ... ≥ 5000 nM
Cc1cc(-c2[nH]c(C)c(C)c(=O)c2C(=O)O)c(N2CCCC(F)(F)CC2)nc1C(F)(F)F ... 500 to 2000 nM
Cc1cc(=O)cc(-c2cnc(C(F)(F)F)nc2C2CCC(F)(F)CC2)[nH]1 ... 2000 to 5000 nM
CCOC(=O)c1c(-c2cc3ccccc3nc2N2CCCCC2)[nH]c(C)c(OC)c1=O ... 500 to 2000 nM
Cc1cc(=O)cc(-c2ccc(C(F)(F)F)cc2C2CCC(F)(F)CC2)[nH]1 ... 500 to 2000 nM
Cc1cc(=O)cc(-c2ccc(C(C)(C)C)cc2OCC2CC2(F)F)[nH]1 (centres unmarked) ... 2000 to 5000 nM

Then this compound:
Item: Cc1cc(=O)cc(-c2cc(C(F)(F)F)ncc2C2CCC(C(F)(F)F)CC2)[nH]1 (centres unmarked) [Compound 321] Test system: human NaV 1.8 (Homo sapiens) Read-out: IC50 Value: ? ≥ 5000 nM

* * *

- assaySystem: human NaV 1.8 (Homo sapiens, UniProt Q9Y5Y9)
- Sequence (Q9Y5Y9 126-1722 limits assumed): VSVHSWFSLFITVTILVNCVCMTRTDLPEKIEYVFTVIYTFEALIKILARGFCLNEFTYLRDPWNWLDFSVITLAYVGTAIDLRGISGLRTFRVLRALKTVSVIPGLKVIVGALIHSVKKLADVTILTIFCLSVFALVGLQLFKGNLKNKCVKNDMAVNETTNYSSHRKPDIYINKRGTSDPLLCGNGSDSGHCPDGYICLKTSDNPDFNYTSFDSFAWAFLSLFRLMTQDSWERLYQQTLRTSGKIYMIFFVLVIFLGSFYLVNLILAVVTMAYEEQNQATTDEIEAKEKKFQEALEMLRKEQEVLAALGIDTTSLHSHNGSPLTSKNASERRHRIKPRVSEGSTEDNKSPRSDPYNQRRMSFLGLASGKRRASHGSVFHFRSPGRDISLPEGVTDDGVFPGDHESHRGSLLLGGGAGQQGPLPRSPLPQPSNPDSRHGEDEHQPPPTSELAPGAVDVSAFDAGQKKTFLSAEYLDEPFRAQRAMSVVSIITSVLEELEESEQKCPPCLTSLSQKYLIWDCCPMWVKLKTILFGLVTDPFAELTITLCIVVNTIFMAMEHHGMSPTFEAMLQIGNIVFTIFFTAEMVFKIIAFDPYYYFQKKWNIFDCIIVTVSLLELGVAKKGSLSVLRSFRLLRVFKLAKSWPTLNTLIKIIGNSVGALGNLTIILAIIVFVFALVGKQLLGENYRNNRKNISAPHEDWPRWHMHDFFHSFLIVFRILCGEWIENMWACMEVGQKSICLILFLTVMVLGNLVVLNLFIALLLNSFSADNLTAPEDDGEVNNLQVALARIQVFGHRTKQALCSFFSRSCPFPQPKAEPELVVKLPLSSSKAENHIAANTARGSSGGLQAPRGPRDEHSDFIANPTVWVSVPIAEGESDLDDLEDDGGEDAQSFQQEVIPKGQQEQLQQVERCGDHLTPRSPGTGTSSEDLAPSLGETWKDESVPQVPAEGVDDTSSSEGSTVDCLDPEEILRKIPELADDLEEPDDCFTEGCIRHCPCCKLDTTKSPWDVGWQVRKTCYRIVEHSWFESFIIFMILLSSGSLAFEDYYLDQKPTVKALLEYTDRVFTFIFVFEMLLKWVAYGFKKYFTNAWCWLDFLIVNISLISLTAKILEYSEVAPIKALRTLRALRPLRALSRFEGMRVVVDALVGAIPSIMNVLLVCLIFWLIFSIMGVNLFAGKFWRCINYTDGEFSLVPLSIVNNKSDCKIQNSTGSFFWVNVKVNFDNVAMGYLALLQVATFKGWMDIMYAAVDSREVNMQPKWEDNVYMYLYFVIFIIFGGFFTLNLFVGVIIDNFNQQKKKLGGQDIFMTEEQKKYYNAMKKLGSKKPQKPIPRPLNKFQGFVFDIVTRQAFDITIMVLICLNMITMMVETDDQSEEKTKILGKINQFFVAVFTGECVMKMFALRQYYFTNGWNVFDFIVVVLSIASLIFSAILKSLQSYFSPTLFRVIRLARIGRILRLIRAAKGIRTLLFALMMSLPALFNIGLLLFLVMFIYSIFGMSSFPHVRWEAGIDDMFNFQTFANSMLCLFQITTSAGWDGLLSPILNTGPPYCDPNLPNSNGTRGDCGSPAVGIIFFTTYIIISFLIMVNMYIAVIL
- assayProcedure: E-VIPR Assay Detecting and Measuring NaV Inhibition Properties
- Format: cell-based
- conditionLabel: HEK cells expressing a truncated form of human NaV 1.8 with full channel activity; electrical stimulation, membrane-potential FRET dyes; 30 minutes compound incubation; read-out: measured IC50 value in the E-VIPR Assay
measuredQuantity: IC50

Worked cases, answers included:
Cc1cc(=O)cc(-c2c(C(F)(F)F)ccnc2N2CCCC(F)(F)CC2)[nH]1 [Compound 318] ... ≥ 5 µM
Cc1[nH]c(-c2c(Oc3ccc(F)c(F)c3C)ncc(C(F)(F)F)c2C)cc(=O)c1-c1cn(C)c(C)n1 [Compound 162] ... 0.5 to 2 µM
COc1c(Oc2cc(C(F)(F)F)c(F)cc2-c2cc(=O)nc(C)[nH]2)ccc(F)c1F [Compound 55] ... ≥ 5 µM
Cc1cc(=O)[nH]c(-c2nc(C(F)(F)F)ccc2N2CCCC(F)(F)CC2)n1 [Compound 252] ... ≥ 5 µM
Cc1cnc(N2CCCC(F)(F)CC2)c(-c2cc(=O)cc(C)[nH]2)c1 [Compound 320] ... 2 to 5 µM
CCOC(=O)c1c(-c2cc3ccccc3nc2N2CCC(F)(F)C2)[nH]c(C)c(OC)c1=O [Compound 242] ... 2 to 5 µM
COc1cc(F)ccc1Oc1cc(C(C)(C)C)cc(C)c1-c1cc(=O)c(C(=O)N(C)C)c(C)[nH]1 [Compound 289] ... 0.5 to 2 µM

Then this compound:
Fill in: IC50 of Cc1cc(=O)cc(-c2ccccc2C2CC2)[nH]1 [Compound 148] is ___ ≥ 5 µM
